- TESTED_SYSTEM: 5-hydroxytryptamine receptor 1A (Homo sapiens)
- TEST_PROTOCOL: agonism at serotonin HTR1A receptor – cell-based, CHO, Ga15 NFAT-bla reporter, primary screen (AID 567);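 note: 0% = DMSO wells and 100% = 5-CT at EC100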
- CONDITION: CHO 5-HT1a Ga15 NFAT-bla reporter, FRET ratio; at 10 µM; stronger effect = higher value; 0% basal, 100% maximal reference agonist
The campaign covered roughly 65,000 compounds. About 370 (0.57%) were called active. This is one part of a sample in which actives are shown more often than they occur.

# COMPOUND, VALUE_UNIT, activation
data = [
    ("CCN1C(=O)C(C(=O)NC(C)c2ccccc2)C2CC1(C)Oc1ccccc12 (centres undefined)", "%", -0.28),
    ("O=C(CSC1=NCCS1)Nc1nc(-c2ccccc2)cs1", "%", -0.71),
    ("O=C(COC(=O)CCc1c[nH]c(=O)[nH]1)Nc1ccccc1Cl", "%", -0.97),
    ("COc1cccc2c(=O)n(CC(=O)N3CCCCCC3)ccc12", "%", -2.41),
    ("COc1cccc2c(C)c(C(=O)O)[nH]c12", "%", 1.98),
    ("Cc1ccc2nc(NC3=NCN(CCc4ccccc4)CN3)nc(C)c2c1", "%", -1.7),
    ("Cc1cccc(N2CCN(C(c3ccccc3)c3nnnn3CC3CCCO3)CC2)c1C (centres undefined)", "%", -0.4),
    ("CC1Cn2c(nnc2-c2cccs2)S1 (centres undefined)", "%", 0.5),
    ("C=CCNc1nnc(SCC(=O)N2CCCCC2)c2ccccc12", "%", 0.32),
    ("CCCCC(=O)N1CC2(C)CN(C(=O)CCCC)CC(C)(C1)C2=O", "%", -3.12),
    ("Cn1c(Cc2csc(N)n2)nnc1SC/C=C/c1ccccc1", "%", 0.48),
    ("COc1cccc(OCC(O)CN2CCN(CCO)CC2)c1 (centres undefined)", "%", 1),
    ("O=C(C(c1ccccc1)c1ccccc1)N1CCN(CC(O)COc2ccccc2)CC1 (centres undefined)", "%", -2.69),
    ("O=c1ccc2cc(S(=O)(=O)N3CCN(c4ccccc4)CC3)ccc2o1", "%", -2.8),
    ("CC(C)NS(=O)(=O)c1ccc(CCC(=O)N2CCOCC2)cc1", "%", -3.1),
    ("Cc1cnc(NC(=O)CSc2nnc(-c3ccc(Cl)cc3Cl)n2N)s1", "%", -1.25),
    ("O=C(c1ccc(-n2cnnn2)cc1)N1CCN(C(c2ccccc2)c2ccccc2)CC1", "%", -2.96),
    ("O=C(COc1ccccc1)NCCc1nc2ccccc2[nH]1", "%", 2.44),
    ("Cc1nc2ccccc2cc1O", "%", 0.14),
    ("COc1ccccc1N(CC(=O)N1CCCCC1)S(=O)(=O)c1ccccc1", "%", -2.64),
    ("CCOC(=O)C1=C(C)NC(C)=C(C(=O)OCC)C1c1ccccn1", "%", -1.2),
    ("O=C(NC1CCCCC1)c1ccc2c(=O)n(CC3CCCO3)c(=O)[nH]c2c1 (centres undefined)", "%", -3.15),
    ("O=C(CN1C2CCC1CC(NC(=O)C1CC1)C2)NCc1ccccc1 (centres undefined)", "%", 0.81),
    ("Cn1cc(S(=O)(=O)N2CCC(Cc3ccccc3)CC2)c(=O)n(C)c1=O", "%", -1.31),
    ("CCOc1ccc2nc(SC(CC)C(=O)Nc3cc(C)on3)sc2c1 (centres undefined)", "%", 0.42),
    ("COc1ccccc1CNC(=O)CCCn1c(=O)c2ccccc2n(CC(=O)NC2CCCC2)c1=O", "%", -2.51),
    ("CCC(=O)c1ccc(OCC(O)CN2CCN(c3cccc(C(F)(F)F)c3)CC2)cc1 (centres undefined)", "%", 36.5),
    ("C=CCn1c(N)c(C(=O)OCC(C)C)c2nc3ccccc3nc21", "%", 0.61),
    ("CCn1c(SCC(=O)Nc2cc(C)ccc2C)nnc1-c1cnccn1", "%", -3.82),
    ("Cc1ccc(-n2nc3cc(Cl)c(NC(=O)c4ccco4)cc3n2)cc1", "%", 0.44),
    ("COc1ccc(Cn2c(=O)sc3ccccc32)cc1OC", "%", 1.04),
    ("CC(C)(C)n1c(=O)[nH]c2c(c1=O)CCC2", "%", -0.19),
    ("CCOc1ccc(NS(=O)(=O)c2ccc(OCC(=O)NCCCOC)cc2)cc1", "%", -1.21),
    ("O=C(O)c1ccc(F)c(S(=O)(=O)Nc2ccccc2)c1", "%", 1),
]
